Test system: High Affinity Rolipram Binding Site of PDE4 in Mouse Brain
Test: Displacement of [3H]-rolipram from its high affinity binding site (HARBS)
Settings: ratio of IC50 for PDE4 catalytic activity to concentration displacing 50% of rolipram from HARBS
Protocol: Suspension was centrifuged twice at 30,000×G at 4° C. and the supernatant discarded. The pellet was resuspended in buffer, and adjusted to a protein concentration of 0.5 mg/mL. Drugs to be tested were dissolved in DMSO and pipetted in triplicate into a 96 well microplate at concentrations ranging from 1 to 30,000 nM. […] The plate was incubated at 4° C. for 1 hour. Contents of the plate were aspirated through a Whatman GF/C filterplate, and rinsed with 4×200 μL ice-cold buffer. […]
attribute-measured: PDE4:HARBS

COc1ccc([C@@H]2CCC(=O)NC2)cc1OC [Compound 46] = >1

Request: Item: CCOc1cc(C2CCC(=O)OC2)ccc1OC (centres unmarked) [Compound 153] Test system: High Affinity Rolipram Binding Site of PDE4 in Mouse Brain Read-out: PDE4:HARBS Value: ?
Result: >1

Request: Moving on to the next molecule: COc1cc(CC2C[C@@H](c3ccc(OC)c(OC4CCCC4)c3)CNC2=O)ccc1O (some centres unmarked) [Compound 62]
Result: >1

Request: Moving on to the next molecule: COc1ccc([C@H]2COC(=O)C(Cc3ccc(C)c(N)c3)C2)cc1OC1CCCC1 (some centres unmarked) [Compound 187]
Result: >1

Request: Moving on to the next molecule: COc1ccc([C@H]2COC(=O)C(Cc3ccc(OC)c(OCc4ccccc4)c3)C2)cc1OC (some centres unmarked) [Compound 135]
Result: <1

###

Target: cAMP phosphodiesterase 3 from human platelets (Homo sapiens, UniProt Q14432)
Construct: from tissue; host or cells: human platelets, cytoplasmic extract
Sequence (Q14432 whole entry): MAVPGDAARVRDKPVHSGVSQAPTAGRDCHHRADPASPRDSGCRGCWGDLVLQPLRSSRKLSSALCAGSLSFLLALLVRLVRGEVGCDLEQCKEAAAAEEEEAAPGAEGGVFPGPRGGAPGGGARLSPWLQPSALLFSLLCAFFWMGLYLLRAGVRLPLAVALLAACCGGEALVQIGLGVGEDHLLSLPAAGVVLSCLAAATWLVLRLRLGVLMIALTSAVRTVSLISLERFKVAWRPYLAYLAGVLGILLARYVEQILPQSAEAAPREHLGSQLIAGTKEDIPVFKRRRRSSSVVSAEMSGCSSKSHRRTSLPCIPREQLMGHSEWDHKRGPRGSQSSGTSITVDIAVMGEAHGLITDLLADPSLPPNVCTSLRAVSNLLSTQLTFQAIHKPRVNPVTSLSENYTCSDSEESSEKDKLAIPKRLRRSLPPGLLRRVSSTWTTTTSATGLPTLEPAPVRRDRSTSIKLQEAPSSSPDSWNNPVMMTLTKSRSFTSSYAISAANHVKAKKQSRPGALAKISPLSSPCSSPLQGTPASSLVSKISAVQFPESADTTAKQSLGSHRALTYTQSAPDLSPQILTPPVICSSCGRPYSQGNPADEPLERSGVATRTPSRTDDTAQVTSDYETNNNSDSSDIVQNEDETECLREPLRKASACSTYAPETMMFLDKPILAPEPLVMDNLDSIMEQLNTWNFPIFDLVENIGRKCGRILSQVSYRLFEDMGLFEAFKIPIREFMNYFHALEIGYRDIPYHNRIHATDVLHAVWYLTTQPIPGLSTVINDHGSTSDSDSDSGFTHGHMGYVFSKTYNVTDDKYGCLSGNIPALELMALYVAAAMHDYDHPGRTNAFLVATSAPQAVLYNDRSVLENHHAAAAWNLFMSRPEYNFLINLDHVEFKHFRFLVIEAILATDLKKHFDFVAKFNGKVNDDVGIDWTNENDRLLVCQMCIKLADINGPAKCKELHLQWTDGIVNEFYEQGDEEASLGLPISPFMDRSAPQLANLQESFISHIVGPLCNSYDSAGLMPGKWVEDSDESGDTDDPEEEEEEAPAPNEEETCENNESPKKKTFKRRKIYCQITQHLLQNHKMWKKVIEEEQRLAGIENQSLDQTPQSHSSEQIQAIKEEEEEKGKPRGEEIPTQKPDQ
Test: Inhibition of cAMP phosphodiesterase 3 from human platelets
Assay type: biochemical
Details: PDE3, platelet cell extract; X marks this range; read-out: IC50 range (μM) 1-10
attribute-measured: IC50

Below are worked cases with known answers.
COc1cc(CC2C[C@@H](c3ccc(OC)c(OC)c3)CNC2=O)ccc1O (stereo partly drawn) [Compound 55] = 1 to 10 µM
COc1cc(CC2C[C@@H](c3ccc(OC)c(OC4CCCC4)c3)CNC2=O)ccc1O (stereo partly drawn) [Compound 62] = 1 to 10 µM

Proceed to the following item.
Request: Which IC50 is reported for this compound? COc1ccc([C@H]2CNC(=O)C(Cc3ccc(OCc4ccccc4)c(OC)c3)C2)cc1OC (stereo partly drawn) [Compound 54]
Result: 1 to 10 µM

###

System: High Affinity Rolipram Binding Site of PDE4 in Mouse Brain
Test: Displacement of [3H]-rolipram from its high affinity binding site (HARBS)
Details: ratio of IC50 for PDE4 catalytic activity to concentration displacing 50% of rolipram from HARBS
attribute-measured: PDE4:HARBS

Below are worked cases with known answers.
COc1ccc(N)cc1CC1C[C@@H](c2ccc(OC)c(OC3CCCC3)c2)COC1=O (some centres unmarked) = >1
CCCCOc1cc([C@@H]2CCC(=O)OC2)ccc1OC = >1
COc1ccc([C@H]2COC(=O)C(Cc3ccc(OC4CCCC4)c(OC)c3)C2)cc1OC (some centres unmarked) = <1
COc1ccc([C@H]2COC(=O)C(Cc3ccc(C)c([N+](=O)[O-])c3)C2)cc1OC1CCCC1 (some centres unmarked) = >1
COc1cc(C[C@@H]2C[C@H](c3ccc(OC)c(OC)c3)COC2=O)ccc1O = <1
COc1ccc([C@H]2CNC(=O)C(Cc3ccc(OCc4ccccc4)c(OC)c3)C2)cc1OC (some centres unmarked) = >1

Request: Which PDE4:HARBS is reported for this compound? CCCCCCOc1cc([C@@H]2CCC(=O)OC2)ccc1OC
Result: <1

Request: Moving on to the next compound: COc1ccc([C@H]2COC(=O)C(Cc3ccc(O)c(O)c3)C2)cc1OC1CCCC1 (some centres unmarked)
Result: <1

Provenance of the data: patent US20030186943A1
